Test system: morningglory
Protocol summary: Test B pre/postemergence morningglory
Format: in vivo, Ipomoea hederacea
Assay setup: Rate 62 g/ha, Postemergence; scale 0 to 10 (0 no effect, 10 complete control)
Recorded Morningglory plant response rating for the following compounds
Please give only the number in your answer, with no unit.

Use these answered entries as a reference point.
- Compound: "CC(C)N(C(=O)n1oc(=O)n(CO)c1=O)c1ccc(Cl)cc1"
  Morningglory plant response rating: 0
- Compound: "CC(C)N(C(=O)n1oc(=O)n(CCCCF)c1=O)c1ccc(F)cc1"
  Morningglory plant response rating: 3
- Compound: "CCN(C(=O)n1oc(=O)n(C2CC2)c1=O)C1CCCCC1"
  Morningglory plant response rating: 0
- Compound: "CC(C)N(C(=O)n1oc(=O)n(COC(=O)C(C)(C)C)c1=O)c1ccc(F)cc1"
  Morningglory plant response rating: 0
- Compound: "Cc1cccc(C(C)(C)C)c1-n1c(=O)on(C(=O)N(c2ccccc2)C(C)C)c1=O"
  Morningglory plant response rating: 0
- Compound: "CCN(C(=O)n1oc(=O)n(C(C)C)c1=O)C1CCCCC1"
  Morningglory plant response rating: 1
- Compound: "C=CCCCn1c(=O)on(C(=O)N(c2ccc(F)cc2)C(C)C)c1=O"
  Morningglory plant response rating: 4

--- query ---
Which Morningglory plant response rating value belongs to CC(C)N(C(=O)n1oc(=O)n(C2CC3CCC2C3)c1=O)c1ccc(F)cc1 (centres unmarked) ?
7

* * *

Recorded Plant response rating, Wheat for the following compounds
Test system: wheat
Protocol summary: Test B pre/postemergence wheat
Format: in vivo, Triticum aestivum
Assay setup: Preemergence, Rate 250 g/ha; scale of 0 to 10 where 0 is no effect and 10 is complete control
Please give only the number in your answer, with no unit.

Use these answered entries as a reference point.
- Compound structure: "Cc1ccccc1Cn1c(=O)on(C(=O)N(C)c2ccccc2)c1=O"
  Observed value: 0
- Compound structure: "CC(C)N(C(=O)n1oc(=O)n(Cc2ccccc2)c1=O)c1ccc(Cl)cc1"
  Observed value: 0
- Compound structure: "CC(C)N(C(=O)n1oc(=O)n(-c2ccccc2OC(F)(F)F)c1=O)c1ccc(F)cc1"
  Observed value: 0

Which Plant response rating, Wheat value belongs to `Cc1ccc(-n2c(=O)on(C(=O)N(c3ccc(F)cc3F)C(C)C)c2=O)c(C)c1` ?
0

Moving on to the next compound: `CC(C)N(C(=O)n1oc(=O)n(C(C)C)c1=O)c1ccccc1`
7

* * *

Test system: sugar beet
Protocol summary: Test B pre/postemergence sugar beet
Assay type: in vivo, Beta vulgaris
Assay setup: Preemergence, Rate 62 g/ha; scale of 0 to 10 where 0 is no effect and 10 is complete control
Measurement name: Plant response rating, Sugarbeets
Please give only the number in your answer, with no unit.

Use these answered entries as a reference point.
- Compound structure: "CC(C)N(C(=O)n1oc(=O)n(CCC2OCCCO2)c1=O)c1ccc(Cl)cc1"
  Plant response rating, Sugarbeets: 0
- Compound structure: "CCC(=O)Cn1c(=O)on(C(=O)N(c2ccc(F)cc2F)C(C)C)c1=O"
  Plant response rating, Sugarbeets: 0
- Compound structure: "CC(C)N(C(=O)n1oc(=O)n(CCCF)c1=O)c1ccc(F)cc1F"
  Plant response rating, Sugarbeets: 9
- Compound structure: "CC(C)N(C(=O)n1oc(=O)n(CC2=NCCCO2)c1=O)c1ccccc1"
  Plant response rating, Sugarbeets: 0

--- query ---
Which Plant response rating, Sugarbeets value belongs to `CC(C)N(C(=O)n1oc(=O)n(CCCNC(=O)CCl)c1=O)c1ccccc1` ?
0

* * *

Tested on: wild oat
Protocol summary: Test B pre/postemergence wild oat
Format: in vivo, Avena fatua
Assay setup: Postemergence, Rate 1000 g/ha; scale 0 to 10 (0 no effect, 10 complete control)
Measurement name: Wild oats plant response rating
Please give only the number in your answer, with no unit.

- Compound: "Cc1ccccc1-n1c(=O)on(C(=O)N(c2c(F)cccc2F)C(C)C)c1=O [Compound 176]"
  Wild oats plant response rating: 4
- Compound: "CCOC(=O)C(C)N(C(=O)n1oc(=O)n(-c2ccccc2C)c1=O)c1ccc(F)cc1 (centres unmarked) [Compound 247]"
  Wild oats plant response rating: 0
- Compound: "COc1ccc(-n2c(=O)on(C(=O)N(c3ccc(F)cc3)C(C)C)c2=O)cc1 [Compound 5]"
  Wild oats plant response rating: 1

Which Wild oats plant response rating value belongs to C=CCn1c(=O)on(C(=O)N(c2ccc(F)cc2F)C2CC2)c1=O [Compound 127] ?
0

Moving on to the next compound: CCOP(=O)(Cn1c(=O)on(C(=O)N(c2ccccc2)C(C)C)c1=O)OCC [Compound 447]
0

* * *

Test system: pigweed
Protocol summary: Test B pre/postemergence pigweed
Assay type: in vivo, Amaranthus retroflexus
Assay setup: Preemergence, Rate 125 g/ha; scale 0 to 10, 0 is no effect, 10 is complete control
Measurement name: Redroot pigweed plant response rating
Please give only the number in your answer, with no unit.

Use these answered entries as a reference point.
- Compound structure: "COCCOCn1c(=O)on(C(=O)N(c2ccc(Cl)cc2)C(C)C)c1=O"
  Redroot pigweed plant response rating: 2
- Compound structure: "CC(C)N(C(=O)n1oc(=O)n(C[Si](C)(C)C)c1=O)c1ccc(F)cc1F"
  Redroot pigweed plant response rating: 2
- Compound structure: "CCOC(=O)C=C(Cn1c(=O)on(C(=O)N(c2ccc(Cl)cc2)C(C)C)c1=O)OCC"
  Redroot pigweed plant response rating: 6

Which Redroot pigweed plant response rating value belongs to `COCn1c(=O)on(C(=O)N(c2ccc(F)cc2F)C(C)C)c1=O` ?
10

* * *

Tested on: blackgrass
Protocol summary: Test B pre/postemergence blackgrass
Format: in vivo, Alopecurus myosuroides
Assay setup: Postemergence, Rate 125 g/ha; scale 0 to 10, 0 is no effect, 10 is complete control
Measurement name: Blackgrass plant response rating
Please give only the number in your answer, with no unit.

- Compound structure: "CC(C)N(C(=O)n1oc(=O)n(CCCNC(=O)CCl)c1=O)c1ccccc1"
  Blackgrass plant response rating: 0
- Compound structure: "CC(C)N(C(=O)n1oc(=O)n(CCc2ccccc2)c1=O)c1ccccc1"
  Blackgrass plant response rating: 0
- Compound structure: "CC(C)N(C(=O)n1oc(=O)n(CC2CCC2)c1=O)c1ccc(Cl)cc1"
  Blackgrass plant response rating: 0

Which Blackgrass plant response rating value belongs to `CC(C)N(C(=O)n1oc(=O)n(C[Si](C)(C)C)c1=O)c1ccc(F)cc1F` ?
7

* * *

Tested on: morningglory
Protocol summary: Test B pre/postemergence morningglory
Assay type: in vivo, Ipomoea hederacea
Assay setup: Preemergence, Rate 250 g/ha; scale of 0 to 10 where 0 is no effect and 10 is complete control
Measurement name: Plant response rating, Morningglory
Please give only the number in your answer, with no unit.

Use these answered entries as a reference point.
- Molecule: "CC(C)N(C(=O)n1oc(=O)n(-c2ccccc2OC(F)(F)F)c1=O)c1ccc(F)cc1 [Compound 14]"
  Observed value: 0
- Molecule: "CCN(CC)C(=O)n1oc(=O)n(-c2ccc(F)cc2)c1=O [Compound 3]"
  Observed value: 0
- Molecule: "COc1cccc(C)c1-n1c(=O)on(C(=O)N(c2ccccc2)C(C)C)c1=O [Compound 73]"
  Observed value: 0
- Molecule: "CC(C)N(C(=O)n1oc(=O)n(-c2ccc(F)cc2F)c1=O)c1ccc(F)cc1F [Compound 22]"
  Observed value: 0
- Molecule: "COc1ccc(-n2c(=O)on(C(=O)N(c3ccc(F)cc3)C(C)C)c2=O)cc1 [Compound 5]"
  Observed value: 0

--- query ---
Short answer please: Plant response rating, Morningglory, morningglory, entry CC(C)N(C(=O)n1oc(=O)n(C(C)C)c1=O)c1ccccc1 [Compound 113]
7

* * *

Test system: soybean
Protocol summary: Test B pre/postemergence soybean
Format: in vivo, Glycine max
Assay setup: Postemergence, Rate 250 g/ha; scale 0 to 10, 0 is no effect, 10 is complete control
Measurement name: Plant response rating, Soybean
Please give only the number in your answer, with no unit.

- Compound: "CC(C)N(C(=O)n1oc(=O)n(C)c1=O)c1ccc(F)cc1F"
  Plant response rating, Soybean: 5
- Compound: "CC(C)N(C(=O)n1oc(=O)n(N2C(C)CCCC2C)c1=O)c1ccc(F)cc1F (centres unmarked)"
  Plant response rating, Soybean: 3
- Compound: "CC(C)N(C(=O)n1oc(=O)n(C2(C)CC2)c1=O)c1ccc(F)cc1F"
  Plant response rating, Soybean: 6
- Compound: "CC(C)N(C(=O)n1oc(=O)n(N2CCOCC2)c1=O)c1ccc(F)cc1"
  Plant response rating, Soybean: 2

Which Plant response rating, Soybean value belongs to `CC(C)N(C(=O)n1oc(=O)n(CC#N)c1=O)c1ccc(F)cc1` ?
1

* * *

System: crabgrass
Protocol summary: Test B pre/postemergence crabgrass
Format: in vivo, Digitaria sanguinalis
Assay setup: Postemergence, Rate 62 g/ha; scale 0 to 10, 0 is no effect, 10 is complete control
Measurement name: Crabgrass plant response rating
Please give only the number in your answer, with no unit.

Use these answered entries as a reference point.
- Compound: "Cc1ccccc1Cn1c(=O)on(C(=O)N(C)c2ccccc2)c1=O [Compound 85]"
  Crabgrass plant response rating: 0
- Compound: "COc1cccc(C)c1-n1c(=O)on(C(=O)N(c2ccc(F)cc2)C(C)C)c1=O [Compound 62]"
  Crabgrass plant response rating: 0
- Compound: "CCN(Cc1ccccc1)C(=O)n1oc(=O)n(-c2ccccc2C)c1=O [Compound 71]"
  Crabgrass plant response rating: 0
- Compound: "COc1ccc(-n2c(=O)on(C(=O)N(c3ccc(F)cc3)C(C)C)c2=O)c(OC)c1 [Compound 33]"
  Crabgrass plant response rating: 1
- Compound: "Cc1ccc(-n2c(=O)on(C(=O)N(c3ccc(F)cc3F)C(C)C)c2=O)c(C)c1 [Compound 24]"
  Crabgrass plant response rating: 2

--- query ---
Which Crabgrass plant response rating value belongs to CC(C)N(C(=O)n1oc(=O)n(-c2ccc(F)cc2F)c1=O)c1ccc(F)cc1F [Compound 22] ?
0
